Consider the following variants; for each one, report its protein stability index.
B1: INTS4 (parent)
chain: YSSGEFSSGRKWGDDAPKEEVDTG

Variants of: B1
test: protein stability index of a GFP-peptide fusion (GPS, HEK-293T) (PSI 1-6); higher = more stable;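 further: lentivirally expressed fusions sorted by FACS into six bins by GFP to DsRed ratio, PSI derived from sequencing read proportions per bin multiplied by bin number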
test context: c terminus: a fixed tail appended
Number only, no unit.

Entry YSSGEFSSGRKWGDDAAKEEVDTG [P17A] has what protein stability index? 2.84

How about this variant: YSSGEFSSGRKWGDDAVKEEVDTG [P17V] 2.74

How about this variant: YSSGEQSSGRKWGDDAPKEEVDTG [F6Q] 4.96

How about this variant: YSSGGFSSGRKWGDDAPKEEVDTG [E5G] 2.78

How about this variant: YSSGEFSSGRKWGDDAPKEVVDTG [E20V] 2.37

How about this variant: DSSGEFSSGRKWGDDAPKEEVDTG [Y1D] 5.8

How about this variant: YSSGEYSSGRKWGDDAPKEEVDTG [F6Y] 4.13

How about this variant: YSSGEFSSGRKYGDDAPKEEVDTG [W12Y] 2.57

How about this variant: YSSGEFSSGRHWGDDAPKEEVDTG [K11H] 2.45

How about this variant: YSSGEFSSGRKTGDDAPKEEVDTG [W12T] 3.08

How about this variant: YSSGEFSSGRKWQDDAPKEEVDTG [G13Q] 3.38

How about this variant: YSSGEFSSGRKWGDDAPKTEVDTG [E19T] 2.72

How about this variant: YQSGEFSSGRKWGDDAPKEEVDTG [S2Q] 2.48

How about this variant: YSSGEGSSGRKWGDDAPKEEVDTG [F6G] 4.57

How about this variant: YSEGEFSSGRKWGDDAPKEEVDTG [S3E] 5.22

How about this variant: YSSGEFSSGRKWGDDAIKEEVDTG [P17I] 2.44

How about this variant: YSSGEFSSGRKWGDDAPKMEVDTG [E19M] 2.93

How about this variant: YSSGEFQSGRKWGDDAPKEEVDTG [S7Q] 2.69

How about this variant: YSSGEFSSGRKWGDDAPKEFVDTG [E20F] 2.42

How about this variant: YSSGNFSSGRKWGDDAPKEEVDTG [E5N] 3.27

How about this variant: YSSGEFSSGRKWGDDAPCEEVDTG [K18C] 2.62

How about this variant: YSSGEFSSGRKWGDDAPIEEVDTG [K18I] 2.73

How about this variant: YSSGMFSSGRKWGDDAPKEEVDTG [E5M] 2.68

How about this variant: YSSGEDSSGRKWGDDAPKEEVDTG [F6D] 5.75

How about this variant: YSSGEFSSGRKWFDDAPKEEVDTG [G13F] 2.65

How about this variant: YSSGEFSSGRKWGDDAPKEEVITG [D22I] 2.66

How about this variant: YSSGEFSSGRKWRDDAPKEEVDTG [G13R] 2.15

How about this variant: YSSGEFSSGRKWGDDAHKEEVDTG [P17H] 1.47

How about this variant: YSSGEFSSGRKWGDDAPPEEVDTG [K18P] 3.08

How about this variant: YSSGEFSSGRKWGDDAPKESVDTG [E20S] 1.91

How about this variant: YSSGEFSSGRKWGDDACKEEVDTG [P17C] 2.64

How about this variant: YSSGEPSSGRKWGDDAPKEEVDTG [F6P] 5.56

How about this variant: YSSGEFSSGRKWGDDAPVEEVDTG [K18V] 2.81

How about this variant: YSSGEFSSGRKWGDDAPHEEVDTG [K18H] 2.83

How about this variant: YSSGEFSSGRKWGDDAPKPEVDTG [E19P] 2.3

How about this variant: YSSGPFSSGRKWGDDAPKEEVDTG [E5P] 2.95

How about this variant: YSSGEFSSGRKWGDDFPKEEVDTG [A16F] 2.3

How about this variant: YSSGEFSSGRKWGDDAPKEEVFTG [D22F] 3.28

How about this variant: YSSGEFSSGRTWGDDAPKEEVDTG [K11T] 2.31

How about this variant: YSSGEFSSGRKWGDDAPKEEVDTT [G24T] 2.72

How about this variant: YSCGEFSSGRKWGDDAPKEEVDTG [S3C] 4.1

How about this variant: YSSGEFSKGRKWGDDAPKEEVDTG [S8K] 2.19

How about this variant: YSSGEFSSGRKWADDAPKEEVDTG [G13A] 2.65

How about this variant: YESGEFSSGRKWGDDAPKEEVDTG [S2E] 5.4

How about this variant: YSSGEFSSGRKWGDDAPKEEVDIG [T23I] 2.3

How about this variant: YSSGEFSSNRKWGDDAPKEEVDTG [G9N] 2.59

How about this variant: YSSGEFSSHRKWGDDAPKEEVDTG [G9H] 2.43

How about this variant: YSSGEFSSGRKWGDDRPKEEVDTG [A16R] 2.71

How about this variant: YSSGEFSSGRKWGDDAPKEAVDTG [E20A] 2.3

How about this variant: ESSGEFSSGRKWGDDAPKEEVDTG [Y1E] 5.74

How about this variant: YSSGEFSSFRKWGDDAPKEEVDTG [G9F] 2.48

How about this variant: YSSGEFSSGIKWGDDAPKEEVDTG [R10I] 2.13

How about this variant: YSSGEFSSGRKWGDDAPKEEEDTG [V21E] 2.84

How about this variant: YSSGEFSSGRRWGDDAPKEEVDTG [K11R] 1.97

How about this variant: YSSGEFSSGRKWGDDAPKEEVCTG [D22C] 2.67

How about this variant: YSSGEFSSGQKWGDDAPKEEVDTG [R10Q] 1.98

How about this variant: YSSGEFSSGRIWGDDAPKEEVDTG [K11I] 1.78

How about this variant: YSHGEFSSGRKWGDDAPKEEVDTG [S3H] 4.43

How about this variant: YSSGVFSSGRKWGDDAPKEEVDTG [E5V] 1.32

How about this variant: YSSGEFSSGRKWGDDAPKEESDTG [V21S] 2.54

How about this variant: YSSGEFSSGRKWNDDAPKEEVDTG [G13N] 3.13

How about this variant: YRSGEFSSGRKWGDDAPKEEVDTG [S2R] 5.05

How about this variant: YSSGEFSSGRKWGDDAPKEEVDTN [G24N] 3.09

How about this variant: YSSGEFSPGRKWGDDAPKEEVDTG [S8P] 3.25

How about this variant: YSSGEFSSGRKNGDDAPKEEVDTG [W12N] 3.3

How about this variant: YSSGEFKSGRKWGDDAPKEEVDTG [S7K] 3.45

How about this variant: YSSGEFSSGRKWGDDYPKEEVDTG [A16Y] 2.56

How about this variant: YSSGEFSSGRKWGRDAPKEEVDTG [D14R] 2.02

How about this variant: YSSGEFSSGRKWGDDAYKEEVDTG [P17Y] 1.99

How about this variant: YSSGEFSLGRKWGDDAPKEEVDTG [S8L] 3.21

How about this variant: YSSGHFSSGRKWGDDAPKEEVDTG [E5H] 2.16

How about this variant: YFSGEFSSGRKWGDDAPKEEVDTG [S2F] 4.02

How about this variant: YSSGEFSSPRKWGDDAPKEEVDTG [G9P] 2.27

How about this variant: YSSGEFSSGRKWGDDAPKREVDTG [E19R] 1.75

How about this variant: YSSGEFSSGRKWGDPAPKEEVDTG [D15P] 1.96
